# study_target: M2 muscarinic receptor (Homo sapiens, UniProt P08172)
# Construct: expressed in transfected cells
# Sequence (P08172 1-466): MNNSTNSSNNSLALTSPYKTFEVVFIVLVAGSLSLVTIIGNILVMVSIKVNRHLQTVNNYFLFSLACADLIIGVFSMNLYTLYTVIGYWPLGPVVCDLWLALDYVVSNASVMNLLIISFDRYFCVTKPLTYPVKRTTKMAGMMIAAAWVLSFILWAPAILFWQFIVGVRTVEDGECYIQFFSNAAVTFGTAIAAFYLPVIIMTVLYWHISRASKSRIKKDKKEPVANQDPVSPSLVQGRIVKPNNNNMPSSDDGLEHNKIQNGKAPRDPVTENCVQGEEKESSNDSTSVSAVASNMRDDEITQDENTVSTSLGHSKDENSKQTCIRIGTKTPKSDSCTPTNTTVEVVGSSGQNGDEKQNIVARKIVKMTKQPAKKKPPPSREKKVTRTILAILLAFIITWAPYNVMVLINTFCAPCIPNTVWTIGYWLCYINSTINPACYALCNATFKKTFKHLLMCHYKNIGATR
# experiment_notes: Receptor Selection and Amplification (R-SAT) assay, cloned M2 receptor
# Format: cell-based
# experimental_setup: R-SAT, cloned m2 receptor; read-out: m2 pEC50 (converted)
# Text: The EC50 for an agonist is intended to denote the concentration of a compound needed to achieve 50% of a maximal response seen in an in vitro assay such as R-SAT. For inverse agonists, EC50 is intended to denote the concentration of a compound needed to achieve 50% inhibition of an R-SAT response from basal, no compound, levels. […]
outcome_measure: EC50 (nM)
# value in nM; strip the unit string

Use these answered entries as a reference point.
>>> df
                              smiles_repr                              study_target  value_measured
0  CCCCC1CCN(CCCN2C(=O)COc3cc(F)ccc32)CC1  M2 muscarinic receptor (Homo sapiens, UniProt P08172)             251
1         CCCCC1CCN(CCCN2CCCc3ccccc32)CC1  M2 muscarinic receptor (Homo sapiens, UniProt P08172)             631
2  CCCCC1CCN(CCCN2C(=O)COc3ccc(C)cc32)CC1  M2 muscarinic receptor (Homo sapiens, UniProt P08172)             631

Ask | I would be grateful if you could share the reported EC50 for CCCCC1CCN(CCCN2CCOc3ccc(C)cc32)CC1 .
Reply | 126

* * *

# study_target: M1 muscarinic receptor (Homo sapiens, UniProt P11229)
# Construct: expressed in transfected cells
# Sequence (P11229 whole entry): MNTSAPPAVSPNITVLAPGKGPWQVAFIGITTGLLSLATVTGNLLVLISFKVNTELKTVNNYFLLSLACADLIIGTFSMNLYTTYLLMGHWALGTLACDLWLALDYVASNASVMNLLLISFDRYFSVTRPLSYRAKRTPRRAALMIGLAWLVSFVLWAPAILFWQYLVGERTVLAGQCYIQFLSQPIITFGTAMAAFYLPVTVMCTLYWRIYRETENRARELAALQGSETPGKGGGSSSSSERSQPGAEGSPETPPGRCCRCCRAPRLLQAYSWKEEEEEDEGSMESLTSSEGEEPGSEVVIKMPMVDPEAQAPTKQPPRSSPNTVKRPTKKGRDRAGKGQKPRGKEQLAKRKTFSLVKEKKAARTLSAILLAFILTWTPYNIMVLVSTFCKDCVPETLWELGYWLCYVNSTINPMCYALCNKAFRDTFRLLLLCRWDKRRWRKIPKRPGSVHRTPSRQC
# experiment_notes: Receptor Selection and Amplification (R-SAT) assay, cloned M1 receptor
# Assay type: cell-based
# experimental_setup: R-SAT, second table (COMPOUND ID series)
Hi! Could you tag entries with M1 Eff below 100 as Criterion met, and those at or above as Criterion not met? Much appreciated.

Field: example entries. Status: answers known.
In [3]: df
Out[3]:
                                   molecule              group
0  CC(CN1C(=O)COc2ccccc21)CN1C2CCC1CC(=CCOCC1CC1)C2 (stereo not drawn)      Criterion met
1  CCOCCC1CC2CCC(C1)N2CC(C)CN1C(=O)COc2ccccc21 (single isomer, unassigned) [Compound 00263201]  Criterion not met
2  O=C1COc2cc(F)c(F)cc2N1CCCN1CCC(OCC2CC2)CC1      Criterion met
3  CCON=C1CC2CCC(C1)N2C[C@@H](C)CN1C(=O)COc2ccccc21 (single isomer, unassigned) [Compound 00261434]  Criterion not met
4  C[C@@H](CN1C(=O)COc2ccccc21)CN1[C@@H]2CC[C@H]1CC(=NOCC1CC1)C2 (mixture of isomers)  Criterion not met

Ask | Check if M1 Eff falls below 100 for COC(CN1CCC(OCC2CC2)CC1)CN1C(=O)COc2cc(F)ccc21 (racemic) .
Reply | Criterion met

* * *

# study_target: M2 muscarinic receptor (Homo sapiens, UniProt P08172)
# Construct: expressed in transfected cells
# Sequence (P08172 1-466): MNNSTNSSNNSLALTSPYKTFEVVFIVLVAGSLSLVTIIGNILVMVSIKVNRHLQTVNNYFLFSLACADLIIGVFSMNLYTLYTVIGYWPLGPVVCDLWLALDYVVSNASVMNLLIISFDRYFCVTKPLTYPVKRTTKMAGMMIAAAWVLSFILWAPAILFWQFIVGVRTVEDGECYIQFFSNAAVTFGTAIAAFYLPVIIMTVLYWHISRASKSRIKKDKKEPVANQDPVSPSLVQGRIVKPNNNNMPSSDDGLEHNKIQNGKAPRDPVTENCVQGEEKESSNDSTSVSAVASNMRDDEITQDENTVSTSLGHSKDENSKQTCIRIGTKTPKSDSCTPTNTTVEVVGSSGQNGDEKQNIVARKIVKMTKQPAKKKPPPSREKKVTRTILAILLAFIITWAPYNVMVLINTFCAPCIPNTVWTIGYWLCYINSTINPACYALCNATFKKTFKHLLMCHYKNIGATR
# experiment_notes: Receptor Selection and Amplification (R-SAT) assay, cloned M2 receptor
# Assay type: cell-based
# experimental_setup: R-SAT, second table (COMPOUND ID series); read-out: M2 pEC50 (converted)
outcome_measure: EC50 (nM)
Field format: number, assumed nM, no unit text.

Ask | I would be grateful if you could share the reported EC50 for CC(CN1CCC(OCC2CC2)CC1)CN1C(=O)COc2ccccc21 (racemic) .
Reply | 794

Ask | What would you report for O=C1COc2cc(F)c(F)cc2N1CCCN1CCC(OCC2CC2)CC1 ?
Reply | 631

Ask | What do you get for O=C1COc2ccccc2N1CCCN1CCC(OCC2CC2)CC1 ?
Reply | 1260

* * *

# study_target: M2 muscarinic receptor (Homo sapiens, UniProt P08172)
# Construct: expressed in transfected cells
# experiment_notes: Receptor Selection and Amplification (R-SAT) assay, cloned M2 receptor
# Type: cell-based
# experimental_setup: R-SAT, second table (COMPOUND ID series)
M2 Eff listing for selected compounds.
API note: the answer field is a bare number with no unit suffix.

Reference set, count: 7
>>> df
                                   compound                              study_target  outcome_measure  value_measured
0  O=C1COc2cc(F)c(F)cc2N1CCCN1[C@@H]2CC[C@H]1C[C@@H](OCC1CC1)C2  M2 muscarinic receptor (Homo sapiens, UniProt P08172)           M2 Eff              42
1   O=C1COc2cc(F)ccc2N1CCCN1CCC(OCC2CC2)CC1  M2 muscarinic receptor (Homo sapiens, UniProt P08172)           M2 Eff              73
2      O=C1COc2ccccc2N1CCCN1CCC(OCC2CC2)CC1  M2 muscarinic receptor (Homo sapiens, UniProt P08172)           M2 Eff              40
3  O=C1CCc2cc(F)c(F)cc2N1CCCN1[C@@H]2CC[C@H]1C[C@@H](OCC1CC1)C2  M2 muscarinic receptor (Homo sapiens, UniProt P08172)           M2 Eff              31
4  CCON=C1CC2CCC(C1)N2C[C@@H](C)CN1C(=O)COc2ccccc21 (single isomer, unassigned) [Compound 00261434]  M2 muscarinic receptor (Homo sapiens, UniProt P08172)           M2 Eff              50
5  CC(CN1CCC(OCC2CC2)CC1)CN1C(=O)COc2ccccc21 (racemic)  M2 muscarinic receptor (Homo sapiens, UniProt P08172)           M2 Eff              98
6  COCCC1CC2CCC(C1)N2CC(C)CN1C(=O)COc2ccccc21 (centres unmarked)  M2 muscarinic receptor (Homo sapiens, UniProt P08172)           M2 Eff             123

Could you now consider this next compound?
Ask | Reported M2 Eff, compound C[C@@H](CN1C(=O)COc2ccccc21)CN1[C@@H]2CC[C@H]1CC(=NOCC1CC1)C2 (mixture of isomers) : ____
Reply | 58

* * *

# study_target: M4 muscarinic receptor (Homo sapiens, UniProt P08173)
# Construct: expressed in transfected cells
# Sequence (P08173 whole entry): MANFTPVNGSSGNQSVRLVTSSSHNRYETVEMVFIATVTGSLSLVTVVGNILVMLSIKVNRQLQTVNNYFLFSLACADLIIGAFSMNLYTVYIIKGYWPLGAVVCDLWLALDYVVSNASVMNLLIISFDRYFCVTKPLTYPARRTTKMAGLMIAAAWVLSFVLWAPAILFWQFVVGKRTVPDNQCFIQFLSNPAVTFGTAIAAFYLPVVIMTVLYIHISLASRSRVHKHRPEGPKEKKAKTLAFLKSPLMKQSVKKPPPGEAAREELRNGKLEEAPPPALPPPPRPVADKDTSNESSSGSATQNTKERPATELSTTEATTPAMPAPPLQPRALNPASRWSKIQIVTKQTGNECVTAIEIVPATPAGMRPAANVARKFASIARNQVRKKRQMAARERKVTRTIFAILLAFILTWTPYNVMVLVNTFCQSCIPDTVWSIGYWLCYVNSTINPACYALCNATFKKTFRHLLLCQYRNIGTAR
# experiment_notes: Receptor Selection and Amplification (R-SAT) assay, cloned M4 receptor
# Assay type: cell-based
# experimental_setup: R-SAT, cloned m4 receptor; read-out: m4 pEC50 (converted)
Parameter: EC50. Scope: all listed entries.

>>> print(df.to_string())
                                   molecule  value_measured
0  CCCCC1CCN(CCCN2c3cc(F)ccc3CCC2C)CC1 (stereo not drawn)       > 3.16 µM
1  CCCCC1CCN(CCCN2c3ccccc3CCC2C)CC1 (stereo not drawn)       > 3.16 µM

Please look at the following molecule next.
Ask | For CCCCC1CCN(CCCN2CCCc3cc(C)ccc32)CC1 , what is its reported EC50?
Reply | > 3.16 µM
